This collection of values is drawn from patent US10369138B2.

Tested on: E. coli NB27273-CDY0026 (parent)
Experiment summary: MIC by broth microdilution, isogenic E. coli parent strain
Assay type: cell-based
Measurement context: Escherichia coli, read-out: Strain 1 MIC
Test readout: MIC (µg/mL)
Reply numerically in µg/mL, unit not repeated.

Known MIC results, listed for orientation:
Would you mind telling me what MIC value was observed for CC(C)(O/N=C(\C(=O)N[C@@H]1C(=O)N(S(=O)(=O)O)[C@@H]1Cn1nnc(CN)n1)c1csc(N)n1)C(=O)O ?
0.5

What do we get for CC1(C)[C@H](NC(=O)/C(=N\OCc2cc(=O)c(O)cn2O)c2csc(N)n2)C(=O)N1OS(=O)(=O)O [compound 3, reference compound] ?
0.25

Then this compound: N=C(NC1CCNCC1)c1ccc(OC[C@H](O/N=C(\C(=O)N[C@@H]2C(=O)N(S(=O)(=O)O)[C@@H]2Cn2cncn2)c2csc(N)n2)C(=O)O)cc1
0.125

Same question for NC(=O)OC[C@@H]1[C@H](NC(=O)/C(=N\OCC(=O)O)c2csc(N)n2)C(=O)N1S(=O)(=O)O [compound 2, reference compound] please.
0.125

From here, focus on the item given below.
Which MIC value belongs to CC(C)(O/N=C(\C(=O)N[C@@H]1C(=O)N(S(=O)(=O)O)[C@@H]1CN1CCCC1=O)c1csc(N)n1)C(=O)O ?
1
